- tested.system: Slc12a8 (Mus musculus, UniProt Q8VI23)
- Sequence (Q8VI23 1-705): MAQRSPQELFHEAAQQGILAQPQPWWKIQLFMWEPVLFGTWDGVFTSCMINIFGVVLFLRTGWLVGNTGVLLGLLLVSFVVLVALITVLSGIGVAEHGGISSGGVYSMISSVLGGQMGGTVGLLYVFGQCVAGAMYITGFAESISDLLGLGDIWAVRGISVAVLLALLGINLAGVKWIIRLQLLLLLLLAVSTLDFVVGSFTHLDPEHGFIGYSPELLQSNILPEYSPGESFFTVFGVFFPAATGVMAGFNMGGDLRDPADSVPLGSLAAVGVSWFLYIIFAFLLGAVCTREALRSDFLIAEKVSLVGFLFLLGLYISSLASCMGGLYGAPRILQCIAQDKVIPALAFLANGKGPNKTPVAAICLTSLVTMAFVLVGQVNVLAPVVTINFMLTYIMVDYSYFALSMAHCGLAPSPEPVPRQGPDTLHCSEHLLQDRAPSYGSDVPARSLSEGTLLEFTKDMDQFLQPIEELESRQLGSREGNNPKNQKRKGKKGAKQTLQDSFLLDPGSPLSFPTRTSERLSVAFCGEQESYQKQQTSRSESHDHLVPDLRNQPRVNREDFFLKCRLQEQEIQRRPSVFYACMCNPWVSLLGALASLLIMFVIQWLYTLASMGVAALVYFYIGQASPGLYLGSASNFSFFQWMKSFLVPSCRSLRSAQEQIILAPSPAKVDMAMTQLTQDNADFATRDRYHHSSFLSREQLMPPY
- experimental.details: 3H-NMN uptake into Slc12a8-OE proteoliposomes with cold NMN competition
measured.parameter: IC50 (µM)
Record the value in µM, omitting the unit from your answer.

Entry NC(=O)c1ccc[n+]([C@@H]2O[C@H](COP(=O)([O-])O)[C@@H](O)[C@H]2O)c1 [NMN, Nicotinamide mononucleotide] : reported IC50 = ? 22.8
